- tgt: Neu5Gc(a2-3)Gal(b1-4)GlcNAc(b1-3)Gal(b1-4)GlcNAc(b1-2)Man(a1-3)[Neu5Gc(a2-3)Gal(b1-4)GlcNAc(b1-3)Gal(b1-4)GlcNAc(b1-2)Man(a1-6)]Man(b1-4)GlcNAc(b1-4)GlcNAc
- experiment summary: glycan array binding signal (z-score within array); higher = stronger binding
- setup conditions: glycan notation: IUPAC condensed, linker removed
Only a selection was taken, and the strongest signals are over-represented in it overall.
Hi there, I'd appreciate the recorded glycan array binding signal (z-score) for every entry that follows.
Give bare numbers.

Examples with their reported glycan array binding signal (z-score) follow.
{"columns": ["binder", "glycan array binding signal (z-score)"],
 "data": [
  ["Epa19 (Candida glabrata) (protein) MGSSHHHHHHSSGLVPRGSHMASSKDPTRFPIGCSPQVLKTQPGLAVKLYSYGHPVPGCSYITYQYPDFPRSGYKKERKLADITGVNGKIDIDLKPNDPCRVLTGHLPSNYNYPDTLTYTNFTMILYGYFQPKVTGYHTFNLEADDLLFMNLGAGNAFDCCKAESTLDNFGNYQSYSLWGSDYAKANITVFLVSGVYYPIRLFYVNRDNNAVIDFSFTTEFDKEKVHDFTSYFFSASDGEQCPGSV", -0.264],
  ["SfaEH (Escherichia coli), Q1RDG5 (protein) LLCRNNQTGQVFNSGDTSFRVNVSPVVQYDKSISVLDLSQLVSCQNEDSTGQNYDYLKILKGSGFSPALDTKTYGRLDFTSRPTGYARQLPLQFDLQVTEAFYQYGVWKPFPAKLYLYPAPGVFGKVINNGDLLATLYVNKFSTKGQEAGERNFTWRFYATNDVYIQTGTCRVSSNNVKVDLPSYPGGPVTVPLTVRCDQTQSVSYTLSGPVTGSGNTVFANTAASGSGGVGIQLSDNVGPVPAGQPRSLGQVGSSPVSLGLKASYALTGQASPTPGAVQSVINVTFSYN", -0.442],
  ["CBM40 CPF071 (Clostridium perfringens) (protein) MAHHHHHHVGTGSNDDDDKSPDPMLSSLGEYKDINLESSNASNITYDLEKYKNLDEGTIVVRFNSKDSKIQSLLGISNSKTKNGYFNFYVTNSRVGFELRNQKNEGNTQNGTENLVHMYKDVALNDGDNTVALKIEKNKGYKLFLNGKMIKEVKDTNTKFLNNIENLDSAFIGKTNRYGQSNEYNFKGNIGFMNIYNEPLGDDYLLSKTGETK", 2.46]
]}

Req: Item under review: Epa3to2 (Candida glabrata) (protein) MGSSHHHHHHSSGLVPRGSHMKRELSSQNPFGYPIGCSPQDVAIIPGLTMELYSYPIVSGTPPNCYDASYVDPEYPRTGYLKRKMVGKSTGVTGNLNYKYSVEKACMVKYGNLPAGYNYNEPLTVSNFTMILYGYFKAQTTGLHTFFVNADDLLYINFGAGNAFDCCKREDSKTKLGEYVAYDIWHVDSSKNKVSLFLEKDLYYPIRMFFNNRDNNSSLDLSFSVNGATDQISDFSGYLYSVPDQPDTCPAHIGYDTTCR . Reported glycan array binding signal (z-score)?
Resp: -0.277
